Taken from ChEMBL document CHEMBL4665785.

For each entry below, report its Ki value.
# experimental system: Cathepsin S (Homo sapiens)
# Sequence (P25774 whole entry): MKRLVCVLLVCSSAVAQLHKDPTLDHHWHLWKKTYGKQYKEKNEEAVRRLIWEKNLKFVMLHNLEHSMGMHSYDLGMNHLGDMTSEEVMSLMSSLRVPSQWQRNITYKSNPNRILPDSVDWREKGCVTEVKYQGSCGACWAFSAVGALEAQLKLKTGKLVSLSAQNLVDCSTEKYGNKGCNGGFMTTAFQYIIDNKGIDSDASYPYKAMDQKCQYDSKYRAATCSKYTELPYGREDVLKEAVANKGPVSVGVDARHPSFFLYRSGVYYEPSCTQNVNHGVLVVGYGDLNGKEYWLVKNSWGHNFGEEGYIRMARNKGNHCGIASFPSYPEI
# procedure text: Inhibition of recombinant human Cathepsin S expressed in baculovirus infected insect cells using Z-VVR-AMC as substrate preincubated for 15 mins followed by substrate addition and measured after 10 mins by fluorescence assay
Numbers only, in nM.

N#CC1(NC(=O)CCS(=O)(=O)N2CCN(c3ccccn3)CC2)CC1; 800
N#CC1(NC(=O)[C@H](CS(=O)(=O)N2CCN(c3ccccn3)CC2)NC(=O)Cc2cccs2)CC1; 0.2
CNC(=O)CCS(=O)(=O)N1CCN(c2ccc3nncn3n2)CC1; 700
N#CC1(NC(=O)[C@@H](Cc2ccccc2)CS(=O)(=O)N2CCN(c3ccccn3)CC2)CC1; 290

Hi team, please reply with Ki for each item in this list.
1. Cc1cc(CC(=O)N[C@@H](CS(=O)(=O)N2CCN(c3ccccn3)CC2)C(=O)NC2(C#N)CC2)on1
2. N#CC1(NC(=O)[C@H](CS(=O)(=O)N2CCN(c3ccccn3)CC2)Nc2cccnc2)CC1

RESULT:
0.345
0.25
